# protocol_notes: Human HepG2 cell viability assay in 384 well format
# Assay type: toxicity, cell-based
# Design: dose 125 nL, time 70.5 hour; concentration not given beside the values
# experimental_context: HepG2 cells, read-out: Inhibition

- compound: "Brc1ccc(-c2nnc(CN(Cc3cccs3)CC3CCCO3)o2)s1 (stereo not given)"
  cytotoxicity at 70.5 h: "-14.5%"
- compound: "CNS(=O)(=O)CC(=O)N(C1CC1)C1Cc2ccccc2C1"
  cytotoxicity at 70.5 h: "-13.4%"
- compound: "Cc1cccc(C(=O)N2C[C@@H]3OCCN(c4ncccn4)[C@@H]3C2)n1"
  cytotoxicity at 70.5 h: "2.67%"
- compound: "Cc1cccn2c(CNC(C)CCc3ccc(O)cc3)cnc12 (stereo not given)"
  cytotoxicity at 70.5 h: "-7.78%"
- compound: "Cc1ccc(OCCN(C)C2CCOC2=O)cc1 (stereo not given)"
  cytotoxicity at 70.5 h: "-5.65%"
- compound: "CC(C)(C)CC(=O)Nc1cnn(-c2ccccc2S(C)(=O)=O)c1"
  cytotoxicity at 70.5 h: "-5.49%"
- compound: "Cn1c(C2CC2)nc2cc(NC(=O)C3(O)CCCC3)ccc21"
  cytotoxicity at 70.5 h: "-4.26%"
- compound: "COC[C@H]1CCC[C@H]1Nc1ncnc2c1CCNCC2"
  cytotoxicity at 70.5 h: "-3.38%"
- compound: "CC(C)c1nccn1CCC(=O)NCC(C)(O)c1ccco1 (stereo not given)"
  cytotoxicity at 70.5 h: "-5.68%"
- compound: "O=C(CSCC1CC1)N1CCCN(Cc2ccc(F)cc2)CC1"
  cytotoxicity at 70.5 h: "-11.1%"
- compound: "CN[C@@H](C)C(=O)N(Cc1cccc(C)c1)Cc1ccccc1OC"
  cytotoxicity at 70.5 h: "14.5%"
- compound: "Cc1nn(C)c2c(NCc3ccc(F)cc3)nc(C3CC3)nc12"
  cytotoxicity at 70.5 h: "-5.76%"
- compound: "COCCCNc1ncnc2c1CCN(C(=O)CC1C=CCC1)CC2 (stereo not given)"
  cytotoxicity at 70.5 h: "-5.04%"
- compound: "CC(C)c1nn(C)c(N(C)C)c1CNCc1cscn1"
  cytotoxicity at 70.5 h: "-5.21%"
- compound: "Cc1nn(C)c(N(C)C)c1CNCc1ccccc1CO"
  cytotoxicity at 70.5 h: "-0.166%"
- compound: "O=C(NCc1nnc2n1CCCCC2)N(Cc1ccccn1)C1CC1"
  cytotoxicity at 70.5 h: "0.752%"
- compound: "CNC(=O)c1cccc(CN2CCC(N(C)Cc3ncc(C)o3)C2)c1 (stereo not given)"
  cytotoxicity at 70.5 h: "22.2%"
- compound: "Cc1ccc(C)c(OC(C)C(=O)NCc2cccnc2)c1 (stereo not given)"
  cytotoxicity at 70.5 h: "-5.32%"
- compound: "Cc1nsc(C(=O)NCCc2ccc(F)cc2)n1"
  cytotoxicity at 70.5 h: "-1.44%"
- compound: "COCCO[C@@H]1CCN(C(=O)c2ccc(C)o2)[C@@H]1Cc1cnn(C)c1"
  cytotoxicity at 70.5 h: "-2.12%"
- compound: "COC(=O)c1ccc(NC(=O)CCc2ccncc2)c(C)c1"
  cytotoxicity at 70.5 h: "-11.9%"
- compound: "CC(NC(=O)c1cn(CCC2CCCCC2)nn1)c1cnn(C)c1 (stereo not given)"
  cytotoxicity at 70.5 h: "20.4%"
- compound: "CCCN(CCc1ccccn1)C(=O)Cn1cnnn1"
  cytotoxicity at 70.5 h: "-23.7%"
- compound: "Cc1cnn(CC2CCCN2CC(=O)Nc2nccs2)c1 (stereo not given)"
  cytotoxicity at 70.5 h: "3.35%"
- compound: "CC1CCN(c2ncc3c(n2)CN(c2ccccc2)C3=O)CC1"
  cytotoxicity at 70.5 h: "-9.08%"
